# targetDesc: T1, IgG-Fc (UniProt P01857-1 108-330 = IgG part, limits assumed)
# T1 construct: domain: IgG-Fc; also called biotinylated-IgG-Fc; biotin-IgG-Fc
# assayProtocol: phage ELISA, M13/gIII display
pEC50: −log10 of the molar value.
Rule: class 1 for pEC50 not less than 7, class 0 for anything less.

WEEDCAWHLGELVWCAEFDE (M13/gIII phage display; Secondary Optimization) [phage clone WEEDCAWHLGELVWCAEFDE] :: class 1

## Task Identify whether the reported pEC50 of the following binder is 7 or greater: WVEDCSWHLGELVWCVGLDF (M13/gIII phage display; Designed Clones) [phage clone WVEDCSWHLGELVWCVGLDF]
## Result class 1

## Task State whether the measured pEC50 reaches 7, counting equality as reaching it, for WEADCAWHLGELVWCTKVEE (M13/gIII phage display; Secondary Optimization) [phage clone WEADCAWHLGELVWCTKVEE]
## Result class 1

## Task Test whether the binder DLADCSWHLGELVWCVGLDE (M13/gIII phage display; Designed Clones) [phage clone DLADCSWHLGELVWCVGLDE] records pEC50 of 7 or higher.
## Result class 1

## Task Is reported pEC50 greater than or equal to 7 here: GEASCAYHLGELVWCDEGEG (M13/gIII phage display; Secondary Optimization) [phage clone GEASCAYHLGELVWCDEGEG]
## Result class 0

## Task Does the reported pEC50 for GEADCAWHLGELVWCTKVEE (M13/gIII phage display; Secondary Optimization) [phage clone GEADCAWHLGELVWCTKVEE] fall at or above the 7 mark?
## Result class 1
